Experiment: Volume of distribution at steady state in morbidly obese adult human at 4 mg/kg, iv administered as single dose 30 mins infusion
Type: ADME, organism-based
Parameters: dose 4 mg/kg, route intravenous
Conditions: in vivo, read-out: Vdss
observable: Vd (L/kg)
Record the value in L/kg, omitting the unit from your answer.

Exam item: Find the measured Vd of "CCCCCCCCCC(=O)N[C@@H](Cc1c[nH]c2ccccc12)C(=O)N[C@H](CC(N)=O)C(=O)N[C@@H](CC(=O)O)C(=O)N[C@@H]1C(=O)NCC(=O)N[C@@H](CCCN)C(=O)N[C@@H](CC(=O)O)C(=O)N[C@H](C)C(=O)N[C@@H](CC(=O)O)C(=O)NCC(=O)N[C@H](CO)C(=O)N[C@@H]([C@H](C)CC(=O)O)C(=O)N[C@@H](CC(=O)c2ccccc2N)C(=O)O[C@@H]1C" and report it.
Marked response: 0.18
